- test summary: adipocyte viability effects, profiling panel, cell-based, 3T3-L1 adipocytes, calcein-AM fluorescence, 48 h, basal (AID 1163); also: test concentration not given here
- measurement parameters: 3T3-L1 adipocytes viability, higher = more signal
measurement name: z-score
Write no unit; give the number alone.

**Q:** Record request: z-score value, item C=CCNC(=O)[C@H]1[C@@H]2C(=O)O[C@@H](c3ccccc3)[C@@H](c3ccccc3)N2[C@@H](c2ccccc2OCCO)[C@]12C(=O)N(C(=O)OCCOC)c1ccc(C#CC3=CCCCC3)cc12
**A:** 0.963

**Q:** Record request: z-score value, item COc1c(C)cc(-c2cc3c(c(Cc4ccccc4)n2)[Si](C(C)C)(C(C)C)OC3)cc1C
**A:** -1.44

**Q:** Record request: z-score value, item C=C(C(=O)CC[C@H](OC(=O)c1cccnc1)c1cccc(OCCO)c1)C(C)C
**A:** 0.47

More entries:
**Q:** Record request: z-score value, item Cc1c(NC(=O)/C(C#N)=C/C=C/c2ccc(N(C)C)cc2)c(=O)n(-c2ccccc2)n1C
**A:** 0.257

* * *

Here, each record is paired with measured z-score data.
- test summary: P. aeruginosa biofilm formation inhibitors, primary screen, PAO1 strain, BacTiter-Glo luminescence, LB-PBS (AID 1144)
- measurement parameters: 12 h, higher = more signal
Active and inactive are the calls of the source. The rule behind the calls is not given here.

Recorded z-score, per entry:
**Q:** Record request: z-score value, item CC(C)c1ccc(NN2C(C(O)c3ccco3)C=CC3C(=O)N(c4ccccc4)C(=O)C32)cc1 (configuration not stated)
**A:** -0.688 (inactive)

**Q:** Record request: z-score value, item O=C1C[C@]2(c3ccc([N+](=O)[O-])cc3)C(=O)N(Cc3ccccc3)c3cc(CO)ccc3[C@H]2N1CC12CC3CC(CC(C3)C1)C2
**A:** 0.435 (inactive)

**Q:** Record request: z-score value, item [N-]=[N+]=NCc1ccccc1C[C@]1(C(=O)NCC(O)CO)N=C(c2ccc(OCCCO)cc2)O[C@H]1c1ccccc1CN=[N+]=[N-] (some centres not stated)
**A:** -0.998 (inactive)

**Q:** Record request: z-score value, item C=CCN1C(=O)[C@@]2(O[C@@H](CCO)[C@H]([Si](C)(C)c3ccc(OC)cc3)[C@H]2C)c2cc(N3C(=O)c4ccccc4Oc4ccccc43)ccc21
**A:** -1.4 (inactive)

More entries:
**Q:** Record request: z-score value, item NC(=O)NCC#Cc1ccc2c(c1)[C@]1(C(=O)N2)[C@H](C(=O)Nc2nc3ccccc3s2)[C@H]2C(=O)O[C@H](c3ccccc3)[C@H](c3ccccc3)N2[C@@H]1c1ccc(O)cc1
**A:** 0.688 (inactive)

**Q:** Record request: z-score value, item C[C@H]1ON(c2ccc(C(=O)OC(C)(C)C)cc2)[C@@H](c2ccc(O)cc2)[C@@H]1C(=O)N1C(=O)OC[C@@H]1c1ccccc1
**A:** -0.0446 (inactive)

**Q:** Record request: z-score value, item CCOC(=O)[C@@H]1[C@@H]2C(=O)N(CC)C(=O)[C@@H]2C[C@@H]1Sc1ccccc1
**A:** -0.868 (inactive)

* * *

Here, each record is paired with measured z-score data.
- test summary: modulators of S6 phosphorylation in cells, primary screen, cell-based, A549, cytoblot, luminescence, serum-stimulated (AID 1158);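 also: serum-stimulated A549 lung adenocarcinoma cells; signal is phosphorylated S6 detected by cytoblot immunostaining with HRP secondary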
- measurement parameters: A549 phospho-S6 cytoblot, 5 h, higher = more signal
Write no unit; give the number alone.

**Q:** Record request: z-score value, item CC(C)(C)OC(=O)CC[C@@]1(C(=O)O)N=C(c2ccc(OCCCO)cc2)O[C@@H]1c1ccccc1
**A:** -0.407

**Q:** Record request: z-score value, item O=C1NC(=O)C2C1C=CC(C(O)c1ccc(Br)cc1)N2Nc1ccccn1 (stereo not given)
**A:** 0.599

**Q:** Record request: z-score value, item COC(=O)[C@@]1(Cc2ccc(OC)cc2)[C@H]2c3cc(C(=O)N(C)C)n(CCc4c[nH]c5ccc(O)cc45)c3C[C@H]2CN1C(=O)c1ccccc1
**A:** 0.092

**Q:** Record request: z-score value, item CC(C)CCC[C@@H](C)[C@H]1CC[C@@]2(C)C3=C(CC[C@]12C)[C@@]1(C)CC[C@H](OC(=O)c2ccc(Br)cc2)C(C)(C)C1CC3 (stereo not given in full)
**A:** 1.62

**Q:** Record request: z-score value, item COC(=O)[C@@]1(Cc2ccc(OC)cc2)[C@H]2c3cc(C(=O)N(C)C)n(Cc4ccccc4)c3C[C@H]2CN1C(=O)c1ccccc1
**A:** 0.686

**Q:** Record request: z-score value, item O=C(O)[C@H](Cc1ccccc1)n1cc(-c2ccccn2)nn1
**A:** -0.428

**Q:** Record request: z-score value, item C[C@]1(C(=O)NCCN2CCOCC2)c2ccccc2C(=O)N(Cc2ccc(OC(F)(F)F)cc2)[C@H]1c1ccc(CO)cc1
**A:** -0.173
